measured_on: UniProt P21802
protocol_text: Kinase assay, binding constants (Kd), kinase-tagged T7 phage, qPCR
Each record here notes measured Kd.

{"compound": "CCS(=O)(=O)N1CC2(CN(c3ccc(-c4n[nH]c5ccc(O[C@H](C)c6c(Cl)cnc(C)c6Cl)cc45)cn3)C2)C1", "measured_on": "UniProt P21802", "Kd": "20 to 100 nM"}
{"compound": "C[C@@H](Oc1ccc2[nH]nc(-c3ccc(C4CCN(C(N)=O)CC4)nc3)c2c1)c1c(Cl)cncc1Cl", "measured_on": "UniProt P21802", "Kd": "1 to 20 nM"}
{"compound": "COc1cc2[nH]nc(-c3cnc(N4CC5(COC5)C4)c(C#N)c3)c2cc1O[C@H](C)c1c(C)cnnc1C [Example 218]", "measured_on": "UniProt P21802", "Kd": "20 to 100 nM"}

Turning to the following compound.
Known value: UniProt P21802 Kd of the compound "Cc1cnnc(C)c1[C@H](C)Oc1ccc2[nH]nc(-c3cnc(N4CCC5(CC4)CCS(=O)(=O)C5)nc3)c2c1" equals > 300 nM

* * *

measured_on: FGFR1-BCR Ba/F3 cells (Homo sapiens, UniProt P11362)
Sequence (P11362 22-822 limits assumed, change not shown): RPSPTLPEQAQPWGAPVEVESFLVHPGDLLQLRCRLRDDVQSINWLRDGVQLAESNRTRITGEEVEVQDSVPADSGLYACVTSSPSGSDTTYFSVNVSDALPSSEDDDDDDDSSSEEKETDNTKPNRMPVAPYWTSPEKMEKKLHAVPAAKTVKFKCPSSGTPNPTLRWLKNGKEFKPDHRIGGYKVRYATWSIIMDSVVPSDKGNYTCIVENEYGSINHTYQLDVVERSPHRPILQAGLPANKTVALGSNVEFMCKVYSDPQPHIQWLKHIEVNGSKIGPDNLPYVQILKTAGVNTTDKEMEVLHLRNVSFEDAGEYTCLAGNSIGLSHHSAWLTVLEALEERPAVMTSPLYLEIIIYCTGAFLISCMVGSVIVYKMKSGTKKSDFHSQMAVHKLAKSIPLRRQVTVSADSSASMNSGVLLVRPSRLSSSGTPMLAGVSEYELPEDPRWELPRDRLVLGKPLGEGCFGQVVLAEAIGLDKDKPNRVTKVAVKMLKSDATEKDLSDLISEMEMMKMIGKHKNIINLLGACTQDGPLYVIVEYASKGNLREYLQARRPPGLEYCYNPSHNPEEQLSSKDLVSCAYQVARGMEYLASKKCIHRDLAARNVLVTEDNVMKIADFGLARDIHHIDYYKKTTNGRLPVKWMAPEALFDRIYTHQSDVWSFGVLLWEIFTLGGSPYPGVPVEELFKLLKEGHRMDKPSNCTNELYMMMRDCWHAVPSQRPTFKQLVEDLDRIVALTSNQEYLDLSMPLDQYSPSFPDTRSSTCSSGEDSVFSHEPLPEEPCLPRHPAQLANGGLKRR
protocol_text: Ba/F3 cell viability assay (CellTiter-Glo 2.0), FGFR1-BCR Ba/F3
Assay type: cell-based
measurement_setup: read-out: Ba/F3 Cells FGFR1 (IC50 nM), 48 hours, Cell Titer Glo 2.0
parameter_measured: IC50

Field: example entries. Status: answers known.
{"structure_smiles": "C[C@@H](Oc1ccc2[nH]nc(-c3cnn(C4CCN(CCO)CC4)c3)c2c1)c1c(Cl)cncc1Cl", "IC50": "20 to 100 nM"}
{"structure_smiles": "C[C@@H](Oc1ccc2[nH]nc(-c3ccc(Cl)nc3)c2c1)c1c(Cl)cncc1Cl", "IC50": "> 300 nM"}
{"structure_smiles": "C[C@@H](Oc1ccc2[nH]nc(-c3ccc(N4CCNC(=O)CC4)nc3)c2c1)c1c(Cl)cncc1Cl", "IC50": "100 to 300 nM"}

// "C[C@@H](Oc1ccc2[nH]nc(-c3ccc(N4CC5(CCS(=O)(=O)C5)C4)nc3)c2c1)c1c(Cl)cncc1Cl" : IC50 value = 20 to 100 nM

// "COC(=O)N1CCCC2(C1)CN(c1ncc(-c3n[nH]c4ccc(O[C@H](C)c5c(Cl)cncc5Cl)cc34)cn1)C2" : IC50 value = > 300 nM

// "C[C@@H](Oc1ccc2[nH]nc(-c3cnc(N4CCCN(S(C)(=O)=O)CC4)nc3)c2c1)c1c(Cl)cncc1Cl" : IC50 value = > 300 nM

// "C[C@@H](Oc1ccc2[nH]nc(-c3ccc(N4CCN(C(N)=O)CC4)nc3)c2c1)c1c(Cl)cncc1Cl" : IC50 value = 100 to 300 nM

* * *

measured_on: FGFR3 (V555M) (Homo sapiens (Human), UniProt P22607, V555M)
Sequence (P22607 23-806 V555M): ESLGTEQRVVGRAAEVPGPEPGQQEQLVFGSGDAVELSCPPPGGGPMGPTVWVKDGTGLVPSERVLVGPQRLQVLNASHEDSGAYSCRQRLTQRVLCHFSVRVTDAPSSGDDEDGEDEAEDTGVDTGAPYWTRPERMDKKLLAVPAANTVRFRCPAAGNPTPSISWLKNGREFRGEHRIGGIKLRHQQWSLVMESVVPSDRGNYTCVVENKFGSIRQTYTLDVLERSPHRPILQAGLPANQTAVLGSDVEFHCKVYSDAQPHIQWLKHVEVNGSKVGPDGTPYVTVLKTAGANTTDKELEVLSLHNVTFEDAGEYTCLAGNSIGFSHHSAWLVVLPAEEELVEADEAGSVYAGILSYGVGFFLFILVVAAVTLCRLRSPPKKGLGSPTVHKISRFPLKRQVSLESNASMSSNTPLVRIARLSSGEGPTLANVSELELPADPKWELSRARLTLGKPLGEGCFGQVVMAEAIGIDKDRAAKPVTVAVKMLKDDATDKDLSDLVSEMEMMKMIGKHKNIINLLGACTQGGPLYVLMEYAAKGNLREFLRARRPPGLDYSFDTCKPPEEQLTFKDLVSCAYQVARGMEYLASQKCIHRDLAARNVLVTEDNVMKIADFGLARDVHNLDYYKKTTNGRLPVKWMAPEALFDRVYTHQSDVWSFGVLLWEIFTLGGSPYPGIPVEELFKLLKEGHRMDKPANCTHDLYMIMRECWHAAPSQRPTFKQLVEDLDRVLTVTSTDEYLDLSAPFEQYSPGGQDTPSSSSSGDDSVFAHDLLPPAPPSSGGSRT
protocol_text: Kinase assay, binding constants (Kd), kinase-tagged T7 phage, qPCR
measurement_setup: V555M mutant
Each record here notes measured Kd.

Field: example entries. Status: answers known.
{"structure_smiles": "Cc1ncc(Cl)c([C@@H](C)Oc2cc3c(-c4cnc(N5CCC5)c(F)c4)n[nH]c3cc2Cl)c1Cl", "Kd": "1 to 20 nM"}
{"structure_smiles": "C[C@@H](Oc1ccc2[nH]nc(-c3cnn(C4CCN(C)CC4)c3)c2c1)c1c(Cl)cncc1Cl", "Kd": "1 to 20 nM"}
{"structure_smiles": "CCOC(=O)N1CCCC2(C1)CN(c1ccc(-c3n[nH]c4ccc(O[C@H](C)c5c(C)cnnc5C)cc34)cn1)C2", "Kd": "1 to 20 nM"}

Known value: FGFR3 (V555M) (Homo sapiens (Human), UniProt P22607, V555M) Kd of the compound "Cc1ncc(Cl)c([C@@H](C)Oc2ccc3[nH]nc(-c4cnc(N5CC(O)C5)c(C#N)c4)c3c2)c1Cl" equals 20 to 100 nM

* * *

measured_on: FGFR2 (Homo sapiens (Human), UniProt P21802)
Sequence (P21802 22-821): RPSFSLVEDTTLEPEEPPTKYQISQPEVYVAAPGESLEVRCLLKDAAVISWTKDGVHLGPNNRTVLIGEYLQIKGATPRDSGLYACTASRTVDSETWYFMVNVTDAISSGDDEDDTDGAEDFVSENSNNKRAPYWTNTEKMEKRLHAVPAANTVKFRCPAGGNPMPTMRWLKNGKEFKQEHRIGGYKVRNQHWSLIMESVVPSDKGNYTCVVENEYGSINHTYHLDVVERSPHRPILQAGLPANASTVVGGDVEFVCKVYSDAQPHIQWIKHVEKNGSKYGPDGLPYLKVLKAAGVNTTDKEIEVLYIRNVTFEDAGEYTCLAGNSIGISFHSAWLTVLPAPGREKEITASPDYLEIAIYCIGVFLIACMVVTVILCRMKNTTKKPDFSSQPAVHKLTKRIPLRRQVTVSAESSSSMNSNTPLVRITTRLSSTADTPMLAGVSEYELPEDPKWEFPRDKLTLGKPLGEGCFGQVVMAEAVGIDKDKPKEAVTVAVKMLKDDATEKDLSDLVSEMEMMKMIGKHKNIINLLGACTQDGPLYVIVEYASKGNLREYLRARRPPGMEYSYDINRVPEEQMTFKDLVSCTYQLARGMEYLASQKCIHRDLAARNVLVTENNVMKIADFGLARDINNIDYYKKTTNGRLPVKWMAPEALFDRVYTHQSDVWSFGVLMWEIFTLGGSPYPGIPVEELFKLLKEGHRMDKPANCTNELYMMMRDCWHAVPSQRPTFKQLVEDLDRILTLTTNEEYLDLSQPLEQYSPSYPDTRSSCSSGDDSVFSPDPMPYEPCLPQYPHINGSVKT
protocol_text: Kinase assay, binding constants (Kd), kinase-tagged T7 phage, qPCR
parameter_measured: Kd

{"molecule": "C[C@@H](Oc1ccc2[nH]nc(-c3cnc(N4CCC5(CC4)CNC(=O)C5)nc3)c2c1)c1c(Cl)cncc1Cl", "result": "20 to 100 nM"}
{"molecule": "Cc1cncc(C)c1[C@H](C)Oc1ccc2[nH]nc(-c3ccc(N4CC5(C4)CN(S(C)(=O)=O)C5)nc3)c2c1", "result": "> 300 nM"}
{"molecule": "C[C@@H](Oc1ccc2[nH]nc(-c3cnc(N4CC5(CN(CC(F)F)C5)C4)c(C#N)c3)c2c1)c1c(Cl)cncc1Cl", "result": "100 to 300 nM"}
{"molecule": "C[C@@H](Oc1ccc2[nH]nc(-c3cnn(C4CCN(C(=O)CCN(C)C)CC4)c3)c2c1)c1c(Cl)cncc1Cl", "result": "1 to 20 nM"}
{"molecule": "Cc1ncc(Cl)c([C@@H](C)Oc2ccc3[nH]nc(-c4cnn(C5CCOCC5)c4)c3c2)c1Cl", "result": "1 to 20 nM"}
{"molecule": "CNCc1cc(-c2n[nH]c3cc(OC)c(O[C@H](C)c4c(Cl)cncc4Cl)cc23)cnc1N1CC2(C1)CN(S(C)(=O)=O)C2", "result": "> 300 nM"}

// "Cc1cnnc(C)c1[C@@H](C)Oc1ccc2[nH]nc(-c3cnc(N4CC[C@@H](O)C4)c(C#N)c3)c2c1" : Kd value = 20 to 100 nM

// "C[C@@H](Oc1ccc2[nH]nc(-c3ccc(N4CC5(CCN5C)C4)nc3)c2c1)c1c(Cl)cncc1Cl" : Kd value = 1 to 20 nM

// "COc1cc2[nH]nc(-c3ccc(N4CC5(COC5)C4)nc3)c2cc1O[C@H](C)c1c(C)cnnc1C" : Kd value = 1 to 20 nM

* * *

Each record here notes measured IC50.
measured_on: FGFR1-BCR Ba/F3 cells (Homo sapiens, UniProt P11362)
protocol_text: Ba/F3 cell viability assay (CellTiter-Glo 2.0), FGFR1-BCR Ba/F3
Assay type: cell-based
measurement_setup: read-out: Ba/F3 Cells FGFR1 (IC50 nM), 48 hours, Cell Titer Glo 2.0
From the text: Experimental Purpose: Recombinant kinase fusions are transduced into parental Ba/F3, which becomes dependent upon this constitutive kinase activity for IL3-independent survival. Inhibition of kinase activity leads to cell death, which is monitored using CellTiter-Glo® 2.0 (Promega) which measures intracellular ATP concentration that in turn serves as a marker for viability. FGFR1-BCR Ba/F3 and FGFR3-BAIAP2L1 Ba/F3 were obtained from Advanced Cellular Dynamics (Seattle, WA) […]

{"compound": "COC(=O)N1CCN(c2ccc(-c3n[nH]c4ccc(O[C@H](C)c5c(Cl)cncc5Cl)cc34)cn2)CC1 [Example 7]", "measured_on": "FGFR1-BCR Ba/F3 cells (Homo sapiens, UniProt P11362)", "parameter_measured": "IC50", "result": "> 300 nM"}
{"compound": "C[C@@H](Oc1ccc2[nH]nc(-c3cnn(C4CCN(C5COC5)CC4)c3)c2c1)c1c(Cl)cncc1Cl [Example 87]", "measured_on": "FGFR1-BCR Ba/F3 cells (Homo sapiens, UniProt P11362)", "parameter_measured": "IC50", "result": "20 to 100 nM"}
{"compound": "C[C@@H](Oc1ccc2[nH]nc(-c3cnc(N4CCC5(CC4)CNC(=O)N5)nc3)c2c1)c1c(Cl)cncc1Cl [Example 53]", "measured_on": "FGFR1-BCR Ba/F3 cells (Homo sapiens, UniProt P11362)", "parameter_measured": "IC50", "result": "100 to 300 nM"}

// C[C@@H](Oc1ccc2[nH]nc(-c3ccc(C4CCN(C(N)=O)CC4)nc3)c2c1)c1c(Cl)cncc1Cl [Example 72] : IC50 value = 20 to 100 nM

* * *

Each record here notes measured Kd.
measured_on: FGFR3 (V555M) (Homo sapiens (Human), UniProt P22607, V555M)
protocol_text: Kinase assay, binding constants (Kd), kinase-tagged T7 phage, qPCR
measurement_setup: V555M mutant
Counter-ions that a name gives are not always drawn.

Field: example entries. Status: answers known.
{"compound": "COc1cc2[nH]nc(-c3ccc(N4CC5CC(C4)N5)nc3)c2cc1O[C@H](C)c1c(C)cnnc1C", "measured_on": "FGFR3 (V555M) (Homo sapiens (Human), UniProt P22607, V555M)", "result": "1 to 20 nM"}
{"compound": "C[C@@H](Oc1ccc2[nH]nc(-c3ccc(N4CCNCC4)nc3)c2c1)c1c(Cl)cncc1Cl [Example 2, dihydrochloride]", "measured_on": "FGFR3 (V555M) (Homo sapiens (Human), UniProt P22607, V555M)", "result": "1 to 20 nM"}

Known value: FGFR3 (V555M) (Homo sapiens (Human), UniProt P22607, V555M) Kd of the compound "Cc1ncc(Cl)c([C@@H](C)Oc2ccc3[nH]nc(-c4ccc(N5CC6(CC(O)C6)C5)nc4)c3c2)c1Cl" equals 1 to 20 nM

Known value: FGFR3 (V555M) (Homo sapiens (Human), UniProt P22607, V555M) Kd of the compound "CNC1(C)CN(c2ncc(-c3n[nH]c4cc(Cl)c(O[C@H](C)c5c(Cl)cnc(C)c5Cl)cc34)cc2F)C1" equals 1 to 20 nM

Known value: FGFR3 (V555M) (Homo sapiens (Human), UniProt P22607, V555M) Kd of the compound "C[C@@H](Oc1ccc2[nH]nc(-c3cnc(Cl)nc3)c2c1)c1c(Cl)cncc1Cl" equals 20 to 100 nM

Known value: FGFR3 (V555M) (Homo sapiens (Human), UniProt P22607, V555M) Kd of the compound "C[C@@H](Oc1ccc2[nH]nc(-c3ccc(Cl)nc3)c2c1)c1c(Cl)cncc1Cl" equals 1 to 20 nM

Known value: FGFR3 (V555M) (Homo sapiens (Human), UniProt P22607, V555M) Kd of the compound "C[C@@H](Oc1cc2c(-c3cnc(N4CCC4)c(S(C)(=O)=O)c3)n[nH]c2cc1Cl)c1c(Cl)cncc1Cl" equals 20 to 100 nM

Known value: FGFR3 (V555M) (Homo sapiens (Human), UniProt P22607, V555M) Kd of the compound "C[C@@H](Oc1ccc2[nH]nc(-c3cnc(N4CCCC4)c(C#N)c3)c2c1)c1c(Cl)cncc1Cl" equals 20 to 100 nM

Known value: FGFR3 (V555M) (Homo sapiens (Human), UniProt P22607, V555M) Kd of the compound "C[C@@H](Oc1ccc2[nH]nc(-c3cnc(N4CC5(CCCS(=O)(=O)C5)C4)nc3)c2c1)c1c(Cl)cncc1Cl" equals 1 to 20 nM

Known value: FGFR3 (V555M) (Homo sapiens (Human), UniProt P22607, V555M) Kd of the compound "CCOC(=O)N1CC2(C1)CN(c1ccc(-c3n[nH]c4ccc(O[C@H](C)c5c(Cl)cnc(F)c5Cl)cc34)cn1)C2" equals 1 to 20 nM

Known value: FGFR3 (V555M) (Homo sapiens (Human), UniProt P22607, V555M) Kd of the compound "C[C@@H](Oc1ccc2[nH]nc(-c3cnc(N4CC5(CCCN(S(C)(=O)=O)C5)C4)c(C#N)c3)c2c1)c1c(Cl)cncc1Cl" equals 1 to 20 nM

Known value: FGFR3 (V555M) (Homo sapiens (Human), UniProt P22607, V555M) Kd of the compound "C[C@@H](Oc1ccc2[nH]nc(-c3cnc(N4CCC5(CC4)CCS(=O)(=O)C5)nc3)c2c1)c1c(Cl)cncc1Cl" equals 1 to 20 nM

Known value: FGFR3 (V555M) (Homo sapiens (Human), UniProt P22607, V555M) Kd of the compound "C[C@@H](Oc1ccc2[nH]nc(-c3cnc(N4CC5(CCN(S(C)(=O)=O)C5)C4)nc3)c2c1)c1c(Cl)cncc1Cl" equals 1 to 20 nM

Known value: FGFR3 (V555M) (Homo sapiens (Human), UniProt P22607, V555M) Kd of the compound "CCOC(=O)N1CCC2(CC1)CN(c1ncc(-c3n[nH]c4ccc(O[C@H](C)c5c(Cl)cncc5Cl)cc34)cn1)C2" equals 1 to 20 nM

Known value: FGFR3 (V555M) (Homo sapiens (Human), UniProt P22607, V555M) Kd of the compound "COc1cc2[nH]nc(-c3cnc(N4CC[C@H](C(C)(C)O)C4)c(C#N)c3)c2cc1O[C@H](C)c1c(C)cnnc1C" equals 1 to 20 nM

Known value: FGFR3 (V555M) (Homo sapiens (Human), UniProt P22607, V555M) Kd of the compound "C[C@@H](Oc1ccc2[nH]nc(-c3ccc(N4CC5CC(C4)N5)nc3)c2c1)c1c(Cl)cncc1Cl" equals 1 to 20 nM

Known value: FGFR3 (V555M) (Homo sapiens (Human), UniProt P22607, V555M) Kd of the compound "Cc1cnnc(C)c1[C@@H](C)Oc1ccc2[nH]nc(-c3cnc(N4CCC[C@@H]4CO)c(C#N)c3)c2c1" equals 1 to 20 nM

Known value: FGFR3 (V555M) (Homo sapiens (Human), UniProt P22607, V555M) Kd of the compound "C[C@@H](Oc1ccc2[nH]nc(-c3ccc(N4CC5(C4)CN(S(C)(=O)=O)C5)nc3)c2c1)c1c(Cl)cncc1Cl" equals 1 to 20 nM

Known value: FGFR3 (V555M) (Homo sapiens (Human), UniProt P22607, V555M) Kd of the compound "COc1cc(-c2n[nH]c3ccc(O[C@H](C)c4c(C)cnnc4C)cc23)cnc1N1CC2CC(C1)N2" equals 20 to 100 nM

Known value: FGFR3 (V555M) (Homo sapiens (Human), UniProt P22607, V555M) Kd of the compound "Cc1cnnc(C)c1[C@@H](C)Oc1ccc2[nH]nc(-c3cnc(N4CC5CC(C4)N5)c(C#N)c3)c2c1" equals 1 to 20 nM
